Just for reference, patent US20210196724A1 is where these values come from.

tested on: HCT-15 cells; experiment: CellTiter-Glo cell viability, HCT-15; assay type: cell-based; details: Homo sapiens, 72 h, read-out: Absolute IC50
Assay Metric: IC50 (nM)
API: value field is a number in nM; no unit string.

Value lookup for IC50; key = Cc1cc(N2CCOC[C@@H]2C)ccc1-c1ccc(CC(=O)NCc2ccc(F)cc2)nc1
6

====

tested on: SK-N-FI cells; assay: CellTiter-Glo cell viability, SK-N-FI; assay type: cell-based; details: Homo sapiens, 72 h, read-out: Absolute IC50
Assay Metric: IC50 (nM)
API: value field is a number in nM; no unit string.

State its IC50 on SK-N-FI cells: Cc1cc(N2CCOC[C@@H]2C)ccc1-c1ccc(CC(=O)NCc2ccc(F)cc2)nc1
4

====

Tested on: Molt-4 cells
Experiment: CellTiter-Glo cell viability, Molt-4
Assay type: cell-based
Details: Homo sapiens, 72 h, read-out: Absolute IC50
Procedure: The cell viability of 50 cancer cell lines was studied after treatment with Compound 121. […] GI50 values were determined according to the examples described above. […] Cells were harvested during a logarithmic growth period and cell number count was determined using Count-star. […] 10 μL of culture medium was added to each well of plate A for TO reading. […] IC50 and GI50 values for each of the 50 cell lines are presented in Table 6 and were calculated based on the dose-response curves depicted in FIGS. 1-50. […]
Assay Metric: pIC50
Hey, just a heads up that pIC50 is the negative log base 10 of the concentration in molar.

Value lookup for pIC50; key = Cc1cc(N2CCOC[C@@H]2C)ccc1-c1ccc(CC(=O)NCc2ccc(F)cc2)nc1
7.85

====

system: AN3 CA cells; experiment: CellTiter-Glo cell viability, AN3 CA; assay type: cell-based; settings: 72 h, read-out: Absolute IC50
Assay Metric: pIC50
Hey, just a heads up that pIC50 is the negative log base 10 of the concentration in molar.

Value lookup for pIC50; key = N.N.[Cl][Pt][Cl] [Cisplatin, reference compound]
5.36

====

tested on: 786-O cells; assay: CellTiter-Glo cell viability, 786-O; type: cell-based; details: Homo sapiens, 786-0, 72 h, read-out: Absolute IC50
Assay Metric: IC50
Don't forget the unit after the value.

State its IC50 on 786-O cells: Cc1cc(N2CCOC[C@@H]2C)ccc1-c1ccc(CC(=O)NCc2ccc(F)cc2)nc1
5 nM

====

tested on: SNU-5 cells; assay: CellTiter-Glo cell viability, SNU-5; assay type: cell-based; details: SN1J-5 cells, 72 h; read-out: Absolute IC50
Assay Metric: pIC50
Hey, just a heads up that pIC50 is the negative log base 10 of the concentration in molar.

Value lookup for pIC50; key = N.N.[Cl][Pt][Cl] [Cisplatin, reference compound]
5.60

====

tested on: AN3 CA cells; assay: CellTiter-Glo cell viability, AN3 CA; format: cell-based; details: Homo sapiens, 72 h, read-out: Absolute IC50
Assay Metric: pIC50
Hey, just a heads up that pIC50 is the negative log base 10 of the concentration in molar.

State its pIC50 on AN3 CA cells: Cc1cc(N2CCOC[C@@H]2C)ccc1-c1ccc(CC(=O)NCc2ccc(F)cc2)nc1
8.30

====

test system: JEG-3 cells; assay: CellTiter-Glo cell viability, JEG-3; type: cell-based; details: 72 h, read-out: Absolute IC50
Assay Metric: IC50 (µM)
API: value field is a number in µM; no unit string.

Value lookup for IC50; key = N.N.[Cl][Pt][Cl] [Cisplatin, reference compound]
9.4
